Every entry's value here was drawn from the OligoGym collection.

Assign remaining target (mRNA or protein) (fraction of control) to each entry below.
applied conditions: ASO; note: test concentration or dose not given here
These antisense oligonucleotides have a phosphorothioate backbone; sugars and methylation of C are not fully specified.
Answers are plain numbers.

Worked set:
# biopolymer sequence, recorded number
measured = [
    ("GATCTTGCAGACGGTAGCTG", 0.3),
    ("CCTGTTTACTGCTCTCCC", 0.8),
]

# map each sequence to its remaining target (mRNA or protein) (fraction of control)
1. ATTTCCTGGGATGTGCGG
2. TGTGGGCCGAGGCTGGAG
3. TGAAGATGAATCTCAATCCA
4. TTCTCCTGTCCACTAGAG
5. ATCCCCTGATTTCTTCAC
6. CTTAAGACATGACTGTTAAG
7. GTCCAGCCACTGCAGTGGCC

Reply:
0.48
0.85
0.88
0.98
0.53
0.89
0.82

Task item: // returns reported remaining target (mRNA or protein) (fraction of control) for input `CTCATCCGGATAGTACACAT`
Reply: 0.64
